Recorded values, source PubChem BioAssay (NCI).

Test system: SR leukemia
Assay: NCI tumour cell line growth inhibition, 384-well format
Record form. Attribute: TGI. Fill in for each entry.
Numbers only, in µM.

See these solved cases before continuing.
>>> df
                                   molecule  measured_on  unit  experimental_value
0  Cn1cncc1[C@@](N)(c1ccc(Cl)cc1)c1ccc2c(c1)c(-c1cccc(Cl)c1)cc(=O)n2C  SR leukemia    µM               0.194
1  C[C@@H]1CN(C(=O)c2ccc(NC(=O)c3cc(O[C@H](C)c4c(Cl)ccc(F)c4Cl)c(N)nn3)cc2)C[C@H](C)N1  SR leukemia    µM              0.0109
2  O=C1CC(c2ccc(N3CCOCC3)cc2)(c2ccsc2)NC(=O)C1Sc1ccccc1Cl (centres undefined)  SR leukemia    µM                1.74

stdin: Please indicate TGI recorded for CCCN(CCC)C(=O)C1=Cc2ccc(-c3ccc(C(=O)N4CCCC4)cc3)cc2N=C(N)C1
stdout: 3.21
